# tested.system: Progesterone receptor (Homo sapiens); note: assay procedure not described here
# Sequence (P06401 whole entry): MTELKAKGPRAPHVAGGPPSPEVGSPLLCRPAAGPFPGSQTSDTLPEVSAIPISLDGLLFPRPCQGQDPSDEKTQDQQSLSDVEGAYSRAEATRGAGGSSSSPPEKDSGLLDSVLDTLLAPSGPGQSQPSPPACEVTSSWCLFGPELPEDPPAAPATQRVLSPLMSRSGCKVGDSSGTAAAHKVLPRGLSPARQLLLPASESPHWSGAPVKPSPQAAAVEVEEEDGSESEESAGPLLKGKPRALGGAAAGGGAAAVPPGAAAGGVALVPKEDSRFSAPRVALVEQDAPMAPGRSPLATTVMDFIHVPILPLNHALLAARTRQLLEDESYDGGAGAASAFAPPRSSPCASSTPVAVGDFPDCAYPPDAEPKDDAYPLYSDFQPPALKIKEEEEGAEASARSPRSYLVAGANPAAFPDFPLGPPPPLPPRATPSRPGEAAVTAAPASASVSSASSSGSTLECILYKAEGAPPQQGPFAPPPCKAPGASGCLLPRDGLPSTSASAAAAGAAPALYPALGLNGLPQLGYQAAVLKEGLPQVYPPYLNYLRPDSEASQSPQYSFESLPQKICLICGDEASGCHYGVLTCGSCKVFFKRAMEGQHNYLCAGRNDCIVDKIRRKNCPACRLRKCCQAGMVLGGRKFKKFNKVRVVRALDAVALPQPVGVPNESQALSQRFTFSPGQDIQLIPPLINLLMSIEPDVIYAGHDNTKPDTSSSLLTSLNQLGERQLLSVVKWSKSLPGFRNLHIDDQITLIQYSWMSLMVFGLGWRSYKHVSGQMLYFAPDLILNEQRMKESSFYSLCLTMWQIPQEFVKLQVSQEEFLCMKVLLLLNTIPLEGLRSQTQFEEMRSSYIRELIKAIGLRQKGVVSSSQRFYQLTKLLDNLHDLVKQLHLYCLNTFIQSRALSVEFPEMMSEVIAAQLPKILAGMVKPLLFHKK
# Assay type: functional

compound | AC50
CC(=O)N1CCN(c2ccc(OCC3COC(Cn4ccnc4)(c4ccc(Cl)cc4Cl)O3)cc2)CC1 (stereo unspecified) | > 10 µM
CCN1C(=O)NC(c2ccccc2)C1=O (stereo unspecified) | > 30 µM
CCCCCCOC(=O)NC(=N)c1ccc(NCc2nc3cc(C(=O)N(CCC(=O)OCC)c4ccccn4)ccc3n2C)cc1 [DABIGATRAN ETEXILATE] | > 30 µM
CCC1(CC)C(=O)NC(=O)N(C)C1=O | > 10 µM
CNC1(C)C2CCC(C2)C1(C)C (stereo unspecified) | > 10 µM
CC(=O)[C@@]1(O)CC[C@H]2[C@@H]3C[C@H](C)C4=CC(=O)C=C[C@]4(C)[C@@]3(F)[C@@H](O)C[C@@]21C | 0.053 µM
CCC(=O)c1ccc2c(c1)N(CC(C)N(C)C)c1ccccc1S2 (stereo unspecified) | > 30 µM
CO[C@@H]1[C@@H](OC(N)=O)[C@@H](O)[C@H](Oc2ccc3c(O)c(NC(=O)c4ccc(O)c(CC=C(C)C)c4)c(=O)oc3c2C)OC1(C)C | > 30 µM
C[C@@H](O)[C@H]1C(=O)N2C(C(=O)O)=C(SCCN=CN)C[C@H]12 [IMIPENEM ANHYDROUS] | > 300 µM
CC(C)CN(C[C@@H](O)[C@H](Cc1ccccc1)NC(=O)O[C@H]1CCOC1)S(=O)(=O)c1ccc(N)cc1 | > 10 µM
Oc1cc(Cl)ccc1Oc1ccc(Cl)cc1Cl | > 30 µM
CCn1c(=O)c2c(nc(/C=C/c3ccc(OC)c(OC)c3)n2C)n(CC)c1=O | > 30 µM
N[C@@H](Cc1cc(I)c(Oc2cc(I)c(O)c(I)c2)c(I)c1)C(=O)O | > 30 µM
C[C@@H](Cc1ccccc1)N(C)Cc1ccccc1 | > 10 µM
CCC(=O)[C@@]1(C)[C@H](C)C[C@H]2[C@@H]3CCC4=CC(=O)C=C[C@]4(C)[C@H]3[C@@H](O)C[C@@]21C [RIMEXOLONE] | 0.0032 µM
CCC[C@@]1(CCc2ccccc2)CC(O)=C([C@H](CC)c2cccc(NS(=O)(=O)c3ccc(C(F)(F)F)cn3)c2)C(=O)O1 | > 30 µM
CO/N=C(\C(=O)N[C@@H]1C(=O)N2C(C(=O)O)=C(CSc3nc(C)c(CC(=O)O)s3)CS[C@H]12)c1csc(N)n1 | > 30 µM
CC(=O)OCC(=O)[C@@]1(O)CC[C@H]2[C@@H]3CCC4=CC(=O)CC[C@]4(C)[C@@]3(F)[C@@H](O)C[C@@]21C [FLUDROCORTISONE ACETATE] | 8.2 µM
CNCCc1ccccn1 | > 30 µM
Nc1c2c(nc3ccccc13)CCCC2O (stereo unspecified) | > 30 µM
Cc1ccc(S(=O)(=O)NC(=O)N[C@H]2[C@H]3CC[C@@](C)([C@H]2O)C3(C)C)cc1 [GLIBORNURIDE] | > 30 µM
CN(Cc1ccc(C(C)(C)C)cc1)Cc1cccc2ccccc12 | > 30 µM
CN(C)CCOCC(=O)NC12CC3CC(CC(C3)C1)C2 | > 30 µM
CC(=O)NC[C@H]1CN(c2ccc(N3CCOCC3)c(F)c2)C(=O)O1 | > 30 µM
C[C@H](Cn1cnc2c(N)ncnc21)OCP(=O)(O)O [TENOFOVIR ANHYDROUS] | > 30 µM
Cn1cnc2c(F)c(Nc3ccc(Br)cc3F)c(C(=O)NOCCO)cc21 | > 30 µM
